- Assay info: Selectivity as ratio of IC50 for A1 adenosine receptor compared to EC50 for A2 adenosine receptor
Measurement kind: A2 selectivity

[P] CCCCC#Cc1nc(N)c2ncn([C@@H]3O[C@H](C(=O)NCC)[C@@H](O)[C@H]3O)c2n1
[Q] CCCCCCC#Cc1nc(N)c2ncn(C3O[C@H](C(=O)NCC)[C@@H](O)[C@H]3O)c2n1 (some centres not stated)
[R] CCCCCC#Cc1nc(N)c2ncn([C@@H]3O[C@H](CO)[C@@H](O)[C@H]3O)c2n1
[S] CCCCCCC#Cc1nc(N)c2ncn([C@@H]3O[C@H](CO)[C@@H](O)[C@H]3O)c2n1
Problem: Sort the listed entries by A2 selectivity, smallest first. // format: requested-order list of labels
Result: S, R, Q, P

====

- Assay target: Adenosine receptor A1 (Rattus norvegicus, UniProt P25099)
- Sequence (P25099 whole entry): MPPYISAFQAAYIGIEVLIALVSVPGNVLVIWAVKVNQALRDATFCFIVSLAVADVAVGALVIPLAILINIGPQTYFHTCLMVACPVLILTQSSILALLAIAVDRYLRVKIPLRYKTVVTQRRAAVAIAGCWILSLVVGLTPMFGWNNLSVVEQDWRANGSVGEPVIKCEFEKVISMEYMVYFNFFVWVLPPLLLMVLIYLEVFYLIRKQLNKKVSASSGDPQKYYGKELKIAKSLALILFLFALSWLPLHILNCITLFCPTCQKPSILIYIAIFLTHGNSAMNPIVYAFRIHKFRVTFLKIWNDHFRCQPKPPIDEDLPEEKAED
Measurement kind: Ki (nM)

Look over these answered cases.
CCCCCCC#Cc1nc(N)c2ncn([C@@H]3O[C@H](CO)[C@@H](O)[C@H]3O)c2n1 = 19.6
CCCCC#Cc1nc(N)c2ncn([C@@H]3O[C@H](C(=O)NCC)[C@@H](O)[C@H]3O)c2n1 = 136

[P] CCCCC#Cc1nc(N)c2ncn([C@@H]3O[C@H](CO)[C@@H](O)[C@H]3O)c2n1
[Q] CCCCCC#Cc1nc(N)c2ncn([C@@H]3O[C@H](CO)[C@@H](O)[C@H]3O)c2n1
Problem: Between P and Q , whose recorded Ki is greater? Refer to your chosen item by its label in the answer.
Result: Q

====

- Assay target: Adenosine receptor A1 (Rattus norvegicus, UniProt P25099)
- Sequence (P25099 whole entry): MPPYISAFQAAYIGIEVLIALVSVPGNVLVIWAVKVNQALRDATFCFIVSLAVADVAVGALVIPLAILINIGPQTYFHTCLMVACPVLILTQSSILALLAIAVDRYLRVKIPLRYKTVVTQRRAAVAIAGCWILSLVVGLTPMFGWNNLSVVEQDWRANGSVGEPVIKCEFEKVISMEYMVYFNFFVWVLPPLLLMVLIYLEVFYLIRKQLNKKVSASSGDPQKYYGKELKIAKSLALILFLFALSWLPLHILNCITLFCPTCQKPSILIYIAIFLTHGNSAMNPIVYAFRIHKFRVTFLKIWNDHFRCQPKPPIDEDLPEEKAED
- Assay info: Inhibition of adenylate cyclase via Adenosine A1 receptor in rat fat cell membranes
- Type: functional, Membrane
Measurement kind: IC50 (µM)

[A] CCCC#Cc1nc(N)c2ncn([C@@H]3O[C@H](C(=O)NCC)[C@@H](O)[C@H]3O)c2n1
[B] CCCCCC#Cc1nc(N)c2ncn(C3O[C@H](C(=O)NCC)[C@@H](O)[C@H]3O)c2n1 (some centres not stated)
Problem: Given the entries A and B , determine which has the lower reported IC50. Refer to your chosen item by its label in the answer.
Result: A
(A: 1.62 µM, B: 13.1 µM)

Origin of measurements: ChEMBL document CHEMBL1126089
